Each recorded value in this set is attributed to patent US20040242572A1.

valueKind: melting point

- COC[C@@H]1CCCN1Cc1ccc(CCn2cnc3cc(-c4ccc(Cl)cc4)ccc3c2=O)cc1: 133 to 135 °C
- Cc1nc2cc(-c3ccc(Cl)cc3)ccc2c(=O)n1CCc1ccc(CN2CCCC2)cc1: 160 to 163 °C
- O=c1c2ccc(-c3ccc(Cl)cc3)cc2ncn1CCc1ccc(CN2CCC(Oc3ccccn3)CC2)cc1: 154 to 158 °C
- O=c1c2ccc(-c3ccc(Cl)cc3)cc2ncn1CCc1ccc(CN2CCCCC2)cc1: 169 to 170 °C
- O=c1c2ccc(-c3ccc(Cl)cc3)cc2nnn1CCc1ccc(CN2CCC3(CCCCC3)CC2)cc1: 165 to 166 °C
